- systemUnderTest: T1, human Neuropilin-1 (hNP-1) (human, UniProt O14786 22-923)
- T1 construct: whole, on cells; also called hNeuropilin-1
- T1 sequence (O14786 22-923): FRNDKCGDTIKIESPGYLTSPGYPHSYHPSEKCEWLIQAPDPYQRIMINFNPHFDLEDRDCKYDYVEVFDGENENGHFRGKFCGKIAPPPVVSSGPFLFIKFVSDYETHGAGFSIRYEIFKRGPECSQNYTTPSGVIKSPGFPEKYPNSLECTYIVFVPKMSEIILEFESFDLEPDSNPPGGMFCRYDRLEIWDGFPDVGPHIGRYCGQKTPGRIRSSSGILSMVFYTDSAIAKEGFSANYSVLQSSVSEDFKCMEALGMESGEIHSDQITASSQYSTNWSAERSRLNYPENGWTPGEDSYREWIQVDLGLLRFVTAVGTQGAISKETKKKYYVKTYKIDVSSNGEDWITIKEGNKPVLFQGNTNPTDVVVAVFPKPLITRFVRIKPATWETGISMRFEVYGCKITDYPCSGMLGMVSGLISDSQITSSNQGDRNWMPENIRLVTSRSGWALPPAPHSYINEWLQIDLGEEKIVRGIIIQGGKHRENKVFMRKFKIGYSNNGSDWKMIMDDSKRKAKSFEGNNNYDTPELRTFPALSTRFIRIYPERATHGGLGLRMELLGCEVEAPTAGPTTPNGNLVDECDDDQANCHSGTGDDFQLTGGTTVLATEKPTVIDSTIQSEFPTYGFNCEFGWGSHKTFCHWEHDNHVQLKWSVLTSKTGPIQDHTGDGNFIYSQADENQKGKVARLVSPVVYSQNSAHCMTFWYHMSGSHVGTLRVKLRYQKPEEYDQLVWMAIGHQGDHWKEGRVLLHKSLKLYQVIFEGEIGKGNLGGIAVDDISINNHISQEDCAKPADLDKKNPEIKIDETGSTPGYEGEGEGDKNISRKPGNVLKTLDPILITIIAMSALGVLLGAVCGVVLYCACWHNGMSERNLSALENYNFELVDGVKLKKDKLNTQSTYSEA
- assayRemarks: 125I-VEGF165 competition, stable Balb/C 3T3 A31 cells
pIC50: −log10 of the molar value.

>  <binder>
RRPKGRGKRRREAAAPSDKPRR (also called NP-1 selective peptide) [AS-4]

>  <pIC50>
7.75

$$$$
>  <binder>
KGRGKRRREKQRPCDKPRR [P6V8-3N]

>  <pIC50>
6.60

$$$$
